Test system: SK-OV-3
Experiment: Cytotoxicity against human SK-OV-3 cells assessed as reduction in cell growth incubated for 24 hrs by DAPI staining based fluorescence imaging analysis
Format: functional
Settings: SK-OV-3, 24 h
Attribute measured: IC50 (µM)

| Compound | Attribute measured | Units of measure | Quantitative result |
| --- | --- | --- | --- |
| COc1cc(/C=C/C(=O)/C=C(O)/C=C/c2ccc(OC3=CC(=O)c4ccccc4C3=O)c(OC)c2)ccc1OC1=CC(=O)c2ccccc2C1=O | IC50 | µM | 5.35 |

====

Tested on: MCF7
Assay: Cytotoxicity against human MCF7 cells incubated for 48 hrs by MTT assay
Assay type: functional, cell-based
Details: MCF7, 48 h
Attribute measured: IC50 (µM)

| Compound | Tested system | Attribute measured | Units of measure | Quantitative result |
| --- | --- | --- | --- | --- |
| COc1cc(N)cc(OC)c1C1=C(C(C)=O)C(=O)c2ccccc2C1=O | MCF7 | IC50 | µM | 21.2 |

Taken from ChEMBL document CHEMBL5512632.
